- METHOD DESCRIPTION: toxicity to animals: highest non-lethal dose given ip to ICR mice
- MEASUREMENT CONTEXT: mouse, in vivo, ICR mice 20 g, one injection, average of three separate trials, Table 2
REPORTED PROPERTY: MTD (mg/kg)
Express the result in mg/kg but write the number alone.

Example entries begin here.
C=CCN1C(=O)C(=NNC(=S)N(C)C)c2ccccc21: 100
C=CCN1C(=O)C(=NNC(=S)N(CC)CC)c2ccccc21: 100

With those in mind, consider the next compound.
response.value for CCN(CC)C(=S)NN=C1C(=O)N(C)c2ccccc21 (field: MTD) = 50

###

// LD50 lookup, one value per entry
- METHOD DESCRIPTION: toxicity to animals: Lethal Dose-50 given ip to ICR mice
- MEASUREMENT CONTEXT: mouse, in vivo, ICR mice 20 g, one injection, average of three separate trials, Table 3
Return type: number; implicit unit mg/kg.

CCN(CC)C(=S)NN=C1C(=O)N(C)c2ccccc21: 125
C=CCN1C(=O)C(=NNC(=S)N(C)C)c2ccccc21: 175
C=CCN1C(=O)C(=NNC(=S)N(CC)CC)c2ccccc21: 175

Alright, here's another compound for you.
Measured LD50, CN1C(=O)C(=NNC(N)=S)c2ccccc21 : 125
